Origin of measurements: ChEMBL document CHEMBL2057177

test-name: Kinetic solubility of the compound at pH 6.5 by nephelometric analysis
Assay type: physicochemical
condition-info: buffer, read-out: Kinetic_solubility
Some compounds, each annotated with its measured solubility kinetic.

# compound, modifier, solubility kinetic [µg/mL]
data = [
    ("CC[C@@H]([C@H](C)O)n1ncn(-c2ccc(N3CCN(c4ccc(OC[C@@H]5CO[C@@](Cn6cncn6)(c6ccc(F)cc6F)C5)cc4)CC3)cc2)c1=O [POSACONAZOLE]", "=", 3.1),
    ("NC(=O)c1cccc(C(O)(c2cccnc2)c2ccc(Cl)cc2F)c1 (racemic)", "=", 50),
    ("OC(c1ccc(Cl)cc1)(c1cccnc1)c1ccccc1Cl (racemic)", "=", 3.1),
    ("CC(C)Oc1ccc(C(O)(c2cccnc2)c2ccc(Cl)cc2F)cc1 (racemic)", "=", 1.6),
    ("OC(c1ccc(C(F)(F)F)cc1)(c1cccnc1)c1ccc(Cl)cc1F (racemic)", "<", 1.6),
    ("N#Cc1ccc(C(O)(c2ccc(C(F)(F)F)cc2)c2cccnc2)c(F)c1 (racemic)", "=", 6.3),
    ("CC(C)Oc1ccc(C(O)(c2ccc(Cl)cc2)c2cccnc2)cc1 (racemic)", "=", 1.6),
    ("CC(C)Oc1ncc(C(O)(c2cccnc2)c2ccc(Cl)cc2F)cn1 (racemic)", "=", 12.5),
    ("N#Cc1ccc(C(O)(c2ccc(C(F)(F)F)cc2)c2cccnc2)cc1 (racemic)", "=", 6.3),
]

----------
System: Trypanosoma cruzi
test-name: Antitrypanosomal activity against trypomastigotes of Trypanosoma cruzi Tulahuen expressing the beta- galactosidase gene infected rat L6 cells after 96 hrs
Type: functional, organism-based
condition-info: L6, 96 h
pIC50: −log10 of the molar value.
assay-metric: pIC50

# molecule, assay-metric, numeric-value
measured = [
    ("Clc1ccc(C(c2ccc(Cl)cc2)c2cncnc2)cc1", "pIC50", 6.17),
    ("NC(=O)c1cccc(C(O)(c2cccnc2)c2ccc(Cl)cc2F)c1 (racemic)", "pIC50", 7.60),
    ("CC(C)Oc1ncc(C(O)(c2cccnc2)c2ccc(Cl)cc2F)cn1 (racemic)", "pIC50", 8.10),
    ("OC(c1ccc(Cl)cc1)(c1cccnc1)c1cccc(F)c1 (racemic)", "pIC50", 7.00),
    ("Clc1ccc(C(c2ccc(Cl)cc2)c2cccnc2)cc1", "pIC50", 7.10),
    ("Cc1ccc(C(O)(c2ccc(OC(C)C)cc2)c2cccnc2)c(F)c1 (racemic)", "pIC50", 8.52),
    ("OC(c1ccc(C(F)(F)F)cc1)(c1cccnc1)c1ccc(Cl)cc1F (racemic)", "pIC50", 8.70),
    ("OC(c1ccc(Cl)cc1)(c1cccnc1)c1cccc(C(F)(F)F)c1 (racemic)", "pIC50", 7.15),
    ("COC(c1ccc(Cl)cc1)(c1cccnc1)c1ccccc1Cl (racemic)", "pIC50", 7.05),
    ("OC(c1ccc(Cl)cc1)(c1cccnc1)c1ccccc1F (racemic)", "pIC50", 7.46),
    ("NC(=O)c1cccc(C(O)(c2ccc(C(F)(F)F)cc2)c2cccnc2)c1 (racemic)", "pIC50", 7.15),
    ("OC(c1ccc(Br)cc1)(c1ccc(C(F)(F)F)cc1)c1cccnc1 (racemic)", "pIC50", 7.70),
    ("OC(c1ccc(Cl)cc1)(c1ccc(Cl)cc1)c1cncnc1", "pIC50", 6.66),
    ("N#Cc1ccc(C(O)(c2ccc(Cl)cc2)c2cccnc2)cc1 (racemic)", "pIC50", 7.15),
    ("OC(c1ccc(Cl)cc1)(c1ccc(C(F)(F)F)cc1)c1cccnc1 (racemic)", "pIC50", 8.10),
    ("CC(C)Oc1cccc(C(O)(c2ccc(Cl)cc2)c2cccnc2)c1 (racemic)", "pIC50", 7.09),
    ("OC(c1ccc(C(F)(F)F)cc1)(c1cccnc1)c1cc2ccccc2s1 (racemic)", "pIC50", 7.70),
    ("N#Cc1ccc(C(O)(c2ccc(C(F)(F)F)cc2)c2cccnc2)c(F)c1 (racemic)", "pIC50", 8.70),
    ("CS(=O)(=O)Nc1ccc(C(O)(c2ccc(Cl)cc2)c2cccnc2)cc1 (racemic)", "pIC50", 7.52),
    ("OC(c1ccc(Cl)cc1)(c1cccnc1)c1ccccc1Br (racemic)", "pIC50", 7.15),
    ("COc1ccc(C(O)(c2ccc(Cl)cc2)c2cccnc2)cc1 (racemic)", "pIC50", 7.40),
    ("OC(c1ccc(Cl)cc1)(c1cccnc1)c1ccc(Br)cc1F (racemic)", "pIC50", 7.59),
    ("N#Cc1ccc(C(O)(c2ccc(C(F)(F)F)cc2)c2cccnc2)cc1 (racemic)", "pIC50", 7.92),
]
